- Target Desc: EF2K (Homo sapiens, UniProt O00418)
- Construct: host or cells: LN-229 cell lysate
- Sequence (O00418 whole entry): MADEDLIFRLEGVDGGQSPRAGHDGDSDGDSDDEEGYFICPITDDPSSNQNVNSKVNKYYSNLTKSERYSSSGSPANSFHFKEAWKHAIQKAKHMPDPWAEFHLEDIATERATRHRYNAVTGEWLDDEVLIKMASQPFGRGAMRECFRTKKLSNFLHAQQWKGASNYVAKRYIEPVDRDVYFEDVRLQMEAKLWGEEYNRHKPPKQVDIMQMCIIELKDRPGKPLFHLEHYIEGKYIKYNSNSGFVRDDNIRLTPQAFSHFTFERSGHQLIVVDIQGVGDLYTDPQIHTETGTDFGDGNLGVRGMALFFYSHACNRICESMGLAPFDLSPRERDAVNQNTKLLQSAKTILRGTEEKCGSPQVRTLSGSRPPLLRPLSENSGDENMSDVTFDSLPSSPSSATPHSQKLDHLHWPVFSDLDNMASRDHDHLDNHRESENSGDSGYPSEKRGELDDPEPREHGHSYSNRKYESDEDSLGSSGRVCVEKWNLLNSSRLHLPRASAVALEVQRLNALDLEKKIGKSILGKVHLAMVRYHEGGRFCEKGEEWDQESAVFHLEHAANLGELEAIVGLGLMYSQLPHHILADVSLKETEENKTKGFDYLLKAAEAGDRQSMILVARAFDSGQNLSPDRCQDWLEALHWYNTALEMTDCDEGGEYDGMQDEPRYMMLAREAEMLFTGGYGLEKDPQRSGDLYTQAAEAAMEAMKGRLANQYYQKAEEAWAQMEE
- Assay Procedure: EF2K cell-based assay (P-EF2 AlphaLISA, 2-deoxyglucose stimulated MCF10A cells)
- Recorded Conditions: 2.5 mM 2-deoxyglucose stimulated, P-EF2 Thr56, pIC50 = -log IC50 (M), read-out: eEF2K_C_PThr56 pIC50 (converted)
Measured IC50 accompanies every entry in the list below.
Value Type: IC50 (M)

compound="CN1CCCN(C)c2ccc(cn2)-c2ccnc(n2)Nc2ccc(C(=O)O)c(c2)CN2CCN(CC2)CC1=O [Compound 11]" target_desc="EF2K (Homo sapiens, UniProt O00418)" relation_operator=> test_value=3.02e-05
compound="CN1CCCN(C)c2ncc(cn2)-c2ccnc(n2)Nc2cccc(c2)CN2CCN(CC2)CC1=O [Compound 84]" target_desc="EF2K (Homo sapiens, UniProt O00418)" relation_operator== test_value=8.71e-06
compound="O=C1CN2CCN(CC2)Cc2cccc(c2)Nc2nccc(n2)-c2ccc(nc2)N2CC(O)CC2CCN1 (single isomer, unassigned) [Compound 91]" target_desc="EF2K (Homo sapiens, UniProt O00418)" relation_operator== test_value=1.41e-06
compound="CN1CCN2Cc3cccc(c3)Nc3nccc(n3)-c3ccc(nc3)NCCCNC(=O)CC1C2 (stereo not shown) [Compound 71]" target_desc="EF2K (Homo sapiens, UniProt O00418)" relation_operator=> test_value=3.02e-05
compound="O=C1CN2CCN(CC2)Cc2cccc(c2)Nc2nccc(n2)-c2ccc(nc2)N2CCCC2CN1 (stereo not shown) [Compound 80]" target_desc="EF2K (Homo sapiens, UniProt O00418)" relation_operator== test_value=5.5e-06
compound="CN1CCCN(C)c2ccc(cn2)-c2ccnc(n2)Nc2cccc(c2)N2CCN(CC2)CC1=O [Compound 110]" target_desc="EF2K (Homo sapiens, UniProt O00418)" relation_operator=> test_value=3.02e-05
compound="CN1CCCN(C)c2ccc(cn2)-c2ccnc(n2)Nc2cccc(c2)CN2CCC(CC2)CC1=O [Compound 81]" target_desc="EF2K (Homo sapiens, UniProt O00418)" relation_operator== test_value=1.82e-05

----------
- Target Desc: EF2K (Homo sapiens, UniProt O00418)
- Construct: host or cells: LN-229 cell lysate
- Assay Procedure: EF2K cell-based assay (P-EF2 AlphaLISA, 2-deoxyglucose stimulated MCF10A cells)
- Recorded Conditions: 2.5 mM 2-deoxyglucose stimulated, P-EF2 Thr56, pIC50 = -log IC50 (M), read-out: eEF2K_C_PThr56 pIC50 (converted)
Measured IC50 accompanies every entry in the list below.
Value Type: IC50 (M)

compound="CN1CCCN(C)c2ccc(cn2)-c2ccnc(n2)Nc2cccc(c2)CN2CCN(CC1=O)CC2CO (stereo not shown) [Compound 51]" target_desc="EF2K (Homo sapiens, UniProt O00418)" value_type=IC50 relation_operator== test_value=1.55e-05
compound=O=C1CNCCNc2ccc(cn2)-c2ccnc(n2)Nc2cccc(c2)CN2CCN1CC2 target_desc="EF2K (Homo sapiens, UniProt O00418)" value_type=IC50 relation_operator== test_value=4.47e-06
compound=O=C1CN2CCN(CC2)Cc2cc(ccc2F)Nc2nccc(n2)-c2ccc(nc2)NCCCN1 target_desc="EF2K (Homo sapiens, UniProt O00418)" value_type=IC50 relation_operator== test_value=5.75e-06
compound=CN1CCCN(C)c2ccc(cn2)-c2ccnc(n2)Nc2ccnc(c2)CN2CCN(CC2)CC1=O target_desc="EF2K (Homo sapiens, UniProt O00418)" value_type=IC50 relation_operator== test_value=5.13e-06
compound=O=C1NCCCNc2ccc(cn2)-c2ccnc(n2)Nc2cccc(c2)CN2CCN1CC2 target_desc="EF2K (Homo sapiens, UniProt O00418)" value_type=IC50 relation_operator=> test_value=3.02e-05
compound=CC(C)N1CCCNc2ccc(cn2)-c2ccnc(n2)Nc2cccc(c2)CN2CCN(CC2)CC1=O target_desc="EF2K (Homo sapiens, UniProt O00418)" value_type=IC50 relation_operator=> test_value=3.02e-05
compound=Cc1cc2cc(c1)Nc1nccc(n1)-c1ccc(nc1)NCCCNC(=O)CN1CCN(CC1)C2 target_desc="EF2K (Homo sapiens, UniProt O00418)" value_type=IC50 relation_operator=> test_value=3.02e-05
compound="CN(C)CCOCC1CN2CCN1Cc1cccc(c1)Nc1nccc(n1)-c1ccc(nc1)N(C)CCCN(C)C(=O)C2 (stereo not shown)" target_desc="EF2K (Homo sapiens, UniProt O00418)" value_type=IC50 relation_operator== test_value=2.45e-05
compound=O=C1CNCCCNc2ccc(cn2)-c2ccnc(n2)Nc2cccc(c2)CN2CCN1CC2 target_desc="EF2K (Homo sapiens, UniProt O00418)" value_type=IC50 relation_operator== test_value=7.41e-06
compound=CN1CCCNC(=O)CC2CCN(CC2)Cc2cccc(c2)Nc2nccc(n2)-c2ccc1nc2 target_desc="EF2K (Homo sapiens, UniProt O00418)" value_type=IC50 relation_operator=> test_value=3.02e-05
compound="CN1CCN(C)c2ccc(cn2)-c2ccnc(n2)Nc2cccc(c2)CN2CCNC(CC1=O)C2 (stereo not shown)" target_desc="EF2K (Homo sapiens, UniProt O00418)" value_type=IC50 relation_operator=> test_value=3.02e-05
compound="CC1CN2CCN1Cc1cccc(c1)Nc1nccc(n1)-c1ccc(nc1)NCCCNC(=O)C2 (stereo not shown) [Compound 60]" target_desc="EF2K (Homo sapiens, UniProt O00418)" value_type=IC50 relation_operator== test_value=2.75e-06
compound="COCC1C(=O)NCCCNc2ccc(cn2)-c2ccnc(n2)Nc2cccc(c2)CN2CCN1CC2 (stereo not shown)" target_desc="EF2K (Homo sapiens, UniProt O00418)" value_type=IC50 relation_operator== test_value=4.17e-06
compound=CN1CCCN(C)c2ccc(cn2)-c2ccnc(n2)Nc2cccc(c2)CN2CCCN(CC2)CC1=O target_desc="EF2K (Homo sapiens, UniProt O00418)" value_type=IC50 relation_operator=> test_value=3.02e-05
compound="CN1CCCN(C)c2ccc(cn2)-c2ccnc(n2)Nc2cccc(c2)CN2CCN(CC1=O)C(CCO)C2 (stereo not shown)" target_desc="EF2K (Homo sapiens, UniProt O00418)" value_type=IC50 relation_operator=> test_value=3.02e-05

----------
- Target Desc: EF2K (Homo sapiens, UniProt O00418)
- Construct: host or cells: LN-229 cell lysate
- Assay Procedure: Biochemical EF2K lysate-based kinase assay (AlphaLISA p-eEF2 Thr56)
- Recorded Conditions: pIC50 = -log IC50 (M), read-out: eEF2K_C_alphalisa pIC50 (converted)
- Description: Biochemical EF2K Lysate-Based Kinase Assay LN-229 cells were purchased from ATCC (CRL-2611); these are glioblastoma cells. Cell lysates from LN229 were used in this kinase assay to provide both the kinase and the substrate (EF2). The AlphaLISA p-eEF2 (Thr56) detection assay was developed using a sandwich assay format with two specific antibodies recognizing different epitopes of the target, including one antibody against the phosphorylation site of interest. […]
Value Type: IC50 (M)

compound="O=C1CN2CCN(CC2)Cc2cccc(c2)Nc2nccc(n2)-c2ccc(nc2)CNCCN1 [Compound 34]" relation_operator== test_value=5.25e-07
compound="CN1CCCN(C)c2ccc(cn2)-c2ccnc(n2)Nc2cccc(c2)CN2CCN(CC2)CC1=O [Compound 1]" relation_operator== test_value=7.59e-08
compound="CN1CCCCN(C)c2ccc(cn2)-c2ccnc(n2)Nc2cccc(c2)CN2CCN(CC2)CC1=O [Compound 20]" relation_operator== test_value=1.82e-06
compound="O=C1CN2CCN(CC2)Cc2cc(ccc2C(=O)O)Nc2nccc(n2)-c2ccc(nc2)NCCCN1 [Compound 16]" relation_operator== test_value=2.04e-06
compound="CN1CCCN(C)c2ccc(cn2)-c2ccnc(n2)Nc2cccc(c2)CN2CCNC(C2)C1=O (centres unmarked) [Compound 74]" relation_operator== test_value=2.04e-05
compound="O=C1NCCCNc2ccc(cn2)-c2ccnc(n2)Nc2cccc(c2)CN2CCN1CC2 [Compound 130]" relation_operator=> test_value=3.02e-05
compound="CN1CCCN(C)c2ccc(cn2)-c2ccnc(n2)Nc2cccc(c2)S(=O)(=O)N2CCN(CC2)CC1=O [Compound 27]" relation_operator== test_value=2.95e-06
compound="O=C1CN2CCN(CC2)Cc2cccc(c2)Nc2nccc(n2)-c2ccc(nc2)N2CCCC2CN1 (centres unmarked) [Compound 26]" relation_operator== test_value=1.48e-05

----------
Measured IC50 accompanies every entry in the list below.
- Target Desc: EF2K (Homo sapiens, UniProt O00418)
- Construct: host or cells: LN-229 cell lysate
- Assay Procedure: Biochemical EF2K lysate-based kinase assay (AlphaLISA p-eEF2 Thr56)
- Recorded Conditions: pIC50 = -log IC50 (M), read-out: eEF2K_C_alphalisa pIC50 (converted)
- Description: Biochemical EF2K Lysate-Based Kinase Assay LN-229 cells were purchased from ATCC (CRL-2611); these are glioblastoma cells. Cell lysates from LN229 were used in this kinase assay to provide both the kinase and the substrate (EF2). The AlphaLISA p-eEF2 (Thr56) detection assay was developed using a sandwich assay format with two specific antibodies recognizing different epitopes of the target, including one antibody against the phosphorylation site of interest. […]
Value Type: IC50 (M)

compound="CN1CCCN(C)c2ccc(cn2)-c2ccnc(n2)Nc2cccc(c2)CN2CCN(CC1=O)C(CO)C2 (single isomer, unassigned)" relation_operator== test_value=8.32e-07
compound="O=C1CN2CCN(CC2)Cc2cccc(c2)Nc2nccc(n2)-c2ccc(nc2)N2CC(O)CC2CCN1 (single isomer, unassigned) [Compound 90]" relation_operator== test_value=9.33e-06
compound=CN1CCCNc2ccc(cn2)-c2ccnc(n2)Nc2cccc(c2)CN2CCN(CC1=O)C(=O)C2 relation_operator== test_value=3.72e-06
compound=CN1CCCN(C)c2ccc(cn2)-c2ccnc(n2)Nc2cccc(c2)CC2CCN(CC2)CC1=O relation_operator== test_value=1.35e-06
compound=NC(=O)c1ccc2cc1CN1CCN(CC1)CC(=O)NCCCNc1ccc(cn1)-c1ccnc(n1)N2 relation_operator== test_value=6.03e-07
compound=O=C1CN2CCN(CC2)Cc2cccc(c2)Nc2nccc(n2)-c2ccc(nc2)CN(CC2CC2)CCN1 relation_operator== test_value=9.33e-09
compound="O=C1CN2CCN(CC2)Cc2cccc(c2)Nc2nccc(n2)-c2ccc(nc2)NCC(O)CN1 (single isomer, unassigned) [Compound 25]" relation_operator== test_value=2.88e-06
compound="CN1CCCN(C)c2ccc(cn2)-c2ccnc(n2)Nc2cccc(c2)CN2CCNC(CC1=O)C2 (stereo not shown)" relation_operator== test_value=1.82e-06
compound=CN1CCCNc2ccc(cn2)-c2ccnc(n2)Nc2cccc(c2)CN2CCC(CC2)CC1=O relation_operator=> test_value=3.02e-05
compound="CC1C(=O)N(C)CCCN(C)c2ccc(cn2)-c2ccnc(n2)Nc2cccc(c2)CN2CCN1CC2 (stereo not shown)" relation_operator== test_value=1.29e-07
compound="COCCOCC1CN2CCN1Cc1cccc(c1)Nc1nccc(n1)-c1ccc(nc1)N(C)CCCN(C)C(=O)C2 (stereo not shown)" relation_operator== test_value=1.7e-07
compound=CNC(=O)c1ccc2cc1CN1CCN(CC1)CC(=O)N(C)CCCN(C)c1ccc(cn1)-c1ccnc(n1)N2 relation_operator== test_value=2.09e-07
compound="N#CCCN1CCCNC(=O)CN2CCN(Cc3cccc(c3)Nc3nccc(n3)-c3ccc1nc3)C(CO)C2 (stereo not shown)" relation_operator== test_value=9.12e-07
compound="NC(=O)C1CN2CCN1Cc1cccc(c1)Nc1nccc(n1)-c1ccc(nc1)NCCCNC(=O)C2 (stereo not shown)" relation_operator== test_value=5.75e-07
compound="CN1CCCN(C)c2ccc(cn2)-c2ccnc(n2)Nc2cccc(c2)CN2CCN(CC1=O)CC2COCCO (single isomer, unassigned) [Compound 105]" relation_operator== test_value=8.71e-08
compound=O=C1CC2CCN(CC2)Cc2cccc(c2)Nc2nccc(n2)-c2ccc(nc2)NCCCN1 relation_operator=> test_value=3.02e-05
compound="CN1CCCN(C)c2ccc(cn2)-c2ccnc(n2)Nc2cccc(c2)CN2CCN(CC1=O)CC2COCCN1CCOCC1 (single isomer, unassigned) [Compound 100]" relation_operator== test_value=6.46e-08
compound="CN1CCCN(C)c2ccc(cn2)-c2ccnc(n2)Nc2cccc(c2)CN2CCN(CC1=O)CC2COCCO (single isomer, unassigned) [Compound 104]" relation_operator== test_value=1.78e-05
compound="CN1CCCN(C)c2ccc(cn2)-c2ccnc(n2)Nc2cccc(c2)CN2CCN(CC1=O)CC2CO (single isomer, unassigned) [Compound 53]" relation_operator== test_value=3.39e-08
compound=O=C1CN2CCN(CC2)Cc2ccc(F)c(c2)Nc2nccc(n2)-c2ccc(nc2)NCCCN1 relation_operator== test_value=1.66e-06
compound=O=C1CN2CCN(CC2)C(=O)c2cccc(c2)Nc2nccc(n2)-c2ccc(nc2)NCCCN1 relation_operator== test_value=3.47e-07
compound="CN1CCN(C)c2ccc(cn2)-c2ccnc(n2)Nc2cccc(c2)CN2CCNC(CC1=O)C2 (stereo not shown)" relation_operator== test_value=3.8e-06
compound="CN1CCCN(C)c2ccc(cn2)-c2ccnc(n2)Nc2cccc(c2)CN2CCN(C)C(C2)C1=O (stereo not shown)" relation_operator=> test_value=3.02e-05
compound=CN(C)C(=O)c1ccc2cc1CN1CCN(CC1)CC(=O)N(C)CCCN(C)c1ccc(cn1)-c1ccnc(n1)N2 relation_operator== test_value=1.1e-06
compound=CN1CCCN(C)c2ccc(cn2)-c2ccnc(n2)Nc2cccc(c2)CCN2CCN(CC2)CC1=O relation_operator== test_value=1.74e-05

Entry source: patent US10017509B2
